targetOrSystem: IL16_1, Q14005
Sequence (Q14005 210-306): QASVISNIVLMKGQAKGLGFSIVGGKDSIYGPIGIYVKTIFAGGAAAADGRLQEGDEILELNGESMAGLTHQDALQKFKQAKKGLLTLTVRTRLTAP
assayRemarks: holdup assay
Design: key: below the threshold = too weak to quantify, mostly under pKd 3.1 to 4
conditionSet: plain residues with an end cap or a label only (N-terminal biotin on a linker: ado-ado)

binder: AQRARSPSDV [GPR12, P47775]
pKd: below the threshold

binder: ILRKSTTTTV [PRR16, Q569H4]
pKd: below the threshold

binder: NTANRRTTPV [CACNG2, Q9Y698]
pKd: below the threshold
